# ASSAY_SYSTEM: Matrix metalloproteinase-9 (Homo sapiens, UniProt P14780)
# Sequence (P14780 whole entry): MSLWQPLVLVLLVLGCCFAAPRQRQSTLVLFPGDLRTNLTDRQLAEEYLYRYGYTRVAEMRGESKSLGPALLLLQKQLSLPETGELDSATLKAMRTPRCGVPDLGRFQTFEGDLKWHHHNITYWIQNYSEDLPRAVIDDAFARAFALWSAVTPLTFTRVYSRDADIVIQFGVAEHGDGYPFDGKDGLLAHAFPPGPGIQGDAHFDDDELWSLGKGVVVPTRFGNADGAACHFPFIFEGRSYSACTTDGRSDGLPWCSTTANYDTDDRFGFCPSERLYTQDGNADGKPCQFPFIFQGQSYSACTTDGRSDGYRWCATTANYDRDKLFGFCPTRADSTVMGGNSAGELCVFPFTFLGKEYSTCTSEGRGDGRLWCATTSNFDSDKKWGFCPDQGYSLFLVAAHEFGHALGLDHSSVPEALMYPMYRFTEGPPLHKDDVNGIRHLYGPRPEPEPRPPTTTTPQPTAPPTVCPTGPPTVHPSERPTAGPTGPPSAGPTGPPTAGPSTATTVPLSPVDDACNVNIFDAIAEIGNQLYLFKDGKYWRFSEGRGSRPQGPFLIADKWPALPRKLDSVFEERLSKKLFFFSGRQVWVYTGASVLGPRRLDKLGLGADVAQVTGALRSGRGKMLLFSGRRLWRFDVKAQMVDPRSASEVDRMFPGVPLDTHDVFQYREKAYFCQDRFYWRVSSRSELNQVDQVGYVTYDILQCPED
# RUN_DESCRIPTION: Inhibition of human full length MMP9 using Mca-Pro-Leu-Gly-Leu-Dpa(Dnp)-Ala-Arg-NH2 as substrate measured up to 120 mins by fluorescence assay
ENDPOINT_LABEL: IC50 (nM)

[ask] Give the reported IC50 for `COc1ccc(Oc2ccc(S(=O)(=O)N[C@H](Cc3c[nH]c4ccccc34)C(=O)O)cc2)cc1` (system: Matrix metalloproteinase-9 (Homo sapiens, UniProt P14780)).
[reply] 100

P. O=C(Nc1ccc(S(=O)(=O)N[C@H](Cc2c[nH]c3ccccc23)C(=O)O)cc1)c1ccc(F)nc1
Q. O=C(Nc1ccc(S(=O)(=O)N[C@H](Cc2c[nH]c3ccccc23)C(=O)O)cc1)c1ccc(F)cc1
R. COc1ccc(-c2ccc(S(=O)(=O)N[C@H](Cc3c[nH]c4ccccc34)C(=O)O)cc2)cc1
S. CC(C)Oc1ccc(C(=O)Nc2ccc(S(=O)(=O)N[C@H](Cc3c[nH]c4ccccc34)C(=O)O)cc2)cc1
[ask] Arrange the 4 compounds by rising IC50, starting with the smallest. Labels, requested order.
[reply] Q, P, R, S
(Q: 7 nM, P: 17 nM, R: 28 nM, S: 97 nM)

Source of measurements: ChEMBL document CHEMBL2385031
